For each entry below, report its IC50 value.
# Target: Ecdysone receptor (Spodoptera littoralis, UniProt E3UJZ5)
# Sequence (E3UJZ5 whole entry): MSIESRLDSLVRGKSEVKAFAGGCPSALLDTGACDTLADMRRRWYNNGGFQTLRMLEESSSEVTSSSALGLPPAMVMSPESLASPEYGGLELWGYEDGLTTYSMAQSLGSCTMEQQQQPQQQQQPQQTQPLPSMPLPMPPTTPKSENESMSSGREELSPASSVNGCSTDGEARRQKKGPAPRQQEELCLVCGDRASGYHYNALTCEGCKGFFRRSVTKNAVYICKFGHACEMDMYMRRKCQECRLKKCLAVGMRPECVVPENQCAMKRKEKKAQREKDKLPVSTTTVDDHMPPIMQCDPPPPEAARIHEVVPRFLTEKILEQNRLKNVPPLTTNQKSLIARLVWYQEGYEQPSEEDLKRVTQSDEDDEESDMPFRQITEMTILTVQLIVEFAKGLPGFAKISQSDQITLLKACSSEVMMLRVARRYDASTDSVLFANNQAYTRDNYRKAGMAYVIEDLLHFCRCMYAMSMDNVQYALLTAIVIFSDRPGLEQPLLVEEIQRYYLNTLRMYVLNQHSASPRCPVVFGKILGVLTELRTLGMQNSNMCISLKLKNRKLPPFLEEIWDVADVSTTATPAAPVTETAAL
# Method: Antagonist activity at ecdysone receptor in Spodoptera littoralis Sl2 cells assessed as tebufenozide-induced effect treated 24 hr before tebufenozide challenge measured after 24 hr by luciferase reporter gene assay
The reply should read as a number followed by its unit.

The examples below pair each entry with its known result.
Molecule	IC50
Cc1cc(C)cc(C(=O)C2(NC(=O)C(F)(F)F)CCCCC2)c1	16.2 µM
CCc1ccc(C(=O)NC(C(=O)c2cc(C)cc(C)c2)C(C)(C)C)cc1 (stereo not drawn)	24 µM

In the following, a different molecule is considered.
Dear colleague, I am looking for the recorded IC50 of the following molecule: CC1CCc2ccccc2N1C(=O)c1ccc(Cl)cc1 (stereo not drawn) 55 µM

----------
# Target: Ecdysone receptor (Spodoptera littoralis)
# Method: Agonist activity at ecdysone receptor in Spodoptera littoralis Sl2 cells after 24 hr by luciferase reporter gene assay
# Type: cell-based
# Test Parameters: read-out: pEC50 (converted)
Rule: EC50 below 1000 nM gives 1, anything at or above gives -1.

Would you please look over these solved cases?
Compound	Class
CCc1ccc(C(=O)NC(CC)(CC)C(=O)c2cc(C)cc(C)c2)cc1	-1
CC(C)(C)N(NC(=O)c1ccc(Br)cc1)C(=O)c1ccccc1Cl	1
CCC(CC)(NC(=O)c1ccc2c(c1C)CCCO2)C(=O)c1cc(C)cc(C)c1	1
CCOc1ccccc1C(=O)N(NC(=O)c1ccc(CC)cc1)C(C)(C)C	-1
COc1ccc(C(=O)NN(C(=O)c2cc(C)cc(C)c2Cl)C(C)(C)C)cc1	-1
CCOc1ccccc1C(=O)N(NC(=O)c1ccc(OC)cc1)C(C)(C)C	-1

Does this compound meet the criterion EC50 < 1000 nM? CCc1ccc(C(=O)NN(C(=O)c2cc(C)cc(C)c2)C(C)(C)C)cc1 [TEBUFENOZIDE] 1

Does this compound meet the criterion EC50 < 1000 nM? Cc1cc(C)c(Cl)c(C(=O)N(NC(=O)c2ccc(Cl)cc2)C(C)(C)C)c1 -1

Does this compound meet the criterion EC50 < 1000 nM? Cc1cc(C)cc(C(=O)C2(NC(=O)c3ccc4c(c3C)CCCO4)CCCCC2)c1 1

Does this compound meet the criterion EC50 < 1000 nM? CCc1ccc(C(=O)NN(C(=O)c2cc(C)cc(C)c2Cl)C(C)(C)C)cc1 1

Does this compound meet the criterion EC50 < 1000 nM? CCOc1ccccc1C(=O)N(NC(=O)c1ccc(Cl)cc1)C(C)(C)C -1

Does this compound meet the criterion EC50 < 1000 nM? CC(C)(C)N(NC(=O)c1ccccc1)C(=O)c1ccc(Cl)c(Cl)c1Cl -1

Does this compound meet the criterion EC50 < 1000 nM? CCc1ccc(C(=O)NC(C(=O)c2cc(C)cc(C)c2)C(C)(C)C)cc1 (stereo not drawn) -1

----------
# System: Spodoptera littoralis
# Method: Cytotoxicity against Spodoptera littoralis Sl2 cells assessed as cell viability after 24 hr by MTT assay
# Test Parameters: read-out: pLC50 (converted)
For each entry below, report its CC50 at 24 h value.

Compound	Property Measured	Endpoint Value
Cc1ccc(NC2CCN(C(=O)c3ccc(Cl)cc3)c3ccccc32)cc1 (stereo not given)	CC50 at 24 h	427 µM

Please give CC50 at 24 h, item by item, for the list that follows.
1. Cc1ccc(NC2CCN(C(=O)c3ccc(Cl)cc3)CC2)cc1
2. Cc1ccc(NC2CC(C)N(C(=O)c3ccc(Cl)cc3)c3ccc(C)cc32)cc1 (stereo not given)
3. Cc1ccc(NC2CC(C)N(C(=O)c3ccc(C)cc3)c3ccc(C)cc32)cc1 (stereo not given)

["27.5 µM", "> 501 µM", "> 501 µM"]
